Source: ChEMBL document CHEMBL1133356

Would you mind telling me the reported pIC50 of each entry?
Peptide text beside a SMILES is read from it. * marks the point of attachment. Carboxymethyl = O=C(O)C*
Hey, just a heads up that pIC50 is the negative log base 10 of the concentration in molar.

What measured pIC50 is associated with CC(=O)N[C@@H](CC(=O)O)C(=O)N[C@@H](C)C(=O)N[C@@H](CC(=O)O)C(=O)N[C@@H](CCC(=O)O)C(=O)N[C@@H](Cc1ccc(C(C(=O)O)C(=O)O)cc1)C(=O)N[C@@H](CC(C)C)C(N)=O (HELM PEPTIDE1{[ac].D.A.D.E.[O=C(O)C(C(=O)O)c1ccc(C[C@H](N[*:1])C(=O)[*:2])cc1].L.[am]}$$$$V2.0) on Tyrosine-protein phosphatase non-receptor type 1 (Homo sapiens)?
2.82

What measured pIC50 is associated with CC(=O)N[C@@H](CC(=O)O)C(=O)N[C@@H](C)C(=O)N[C@@H](CC(=O)O)C(=O)N[C@@H](CCC(=O)O)C(=O)N[C@@H](Cc1ccc(O)c(C(=O)O)c1)C(=O)N[C@@H](CC(C)C)C(N)=O (HELM PEPTIDE1{[ac].D.A.D.E.[O=C(O)c1cc(C[C@H](N[*:1])C(=O)[*:2])ccc1O].L.[am]}$$$$V2.0) on Tyrosine-protein phosphatase non-receptor type 1 (Homo sapiens)?
2.34

What measured pIC50 is associated with CC(=O)N[C@@H](CC(=O)O)C(=O)N[C@@H](C)C(=O)N[C@@H](CC(=O)O)C(=O)N[C@@H](CCC(=O)O)C(=O)N[C@@H](Cc1ccc(OCC(=O)O)cc1)C(=O)N[C@@H](CC(C)C)C(N)=O (Ac-DADEY(Carboxymethyl)L-NH2) on Tyrosine-protein phosphatase non-receptor type 1 (Homo sapiens)?
2.92

* * *

Target chain: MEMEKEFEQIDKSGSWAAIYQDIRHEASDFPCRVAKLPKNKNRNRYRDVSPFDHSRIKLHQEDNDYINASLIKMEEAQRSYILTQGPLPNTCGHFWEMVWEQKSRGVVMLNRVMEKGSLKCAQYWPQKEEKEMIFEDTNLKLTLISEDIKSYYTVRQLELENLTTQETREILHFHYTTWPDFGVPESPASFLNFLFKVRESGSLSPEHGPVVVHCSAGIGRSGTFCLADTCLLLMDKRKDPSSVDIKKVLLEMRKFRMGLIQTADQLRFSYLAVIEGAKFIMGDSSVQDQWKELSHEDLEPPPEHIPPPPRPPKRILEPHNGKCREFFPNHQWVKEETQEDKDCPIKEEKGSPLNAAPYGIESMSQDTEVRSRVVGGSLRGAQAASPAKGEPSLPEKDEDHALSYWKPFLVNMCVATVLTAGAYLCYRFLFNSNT
pIC50: −log10 of the molar value. Peptide text beside a SMILES is read from it.
Returns MET if the recorded pIC50 is greater than or equal to 3, and NOT MET otherwise.

Does the molecule CC(=O)N[C@@H](CC(=O)O)C(=O)N[C@@H](C)C(=O)N[C@@H](CC(=O)O)C(=O)N[C@@H](CCC(=O)O)C(=O)N[C@@H](Cc1ccc(CC(=O)O)c(O)c1)C(=O)N[C@@H](CC(C)C)C(N)=O (HELM PEPTIDE1{[ac].D.A.D.E.[O=C(O)Cc1ccc(C[C@H](N[*:1])C(=O)[*:2])cc1O].L.[am]}$$$$V2.0) have recorded pIC50 that is 3 or more?
NOT MET

Does the molecule CC(=O)N[C@@H](CC(=O)O)C(=O)N[C@@H](C)C(=O)N[C@@H](CC(=O)O)C(=O)N[C@@H](CCC(=O)O)C(=O)N[C@@H](Cc1ccc(OCC(=O)O)c(OCC(=O)O)c1)C(=O)N[C@@H](CC(C)C)C(N)=O (HELM PEPTIDE1{[ac].D.A.D.E.[O=C(O)COc1ccc(C[C@H](N[*:1])C(=O)[*:2])cc1OCC(=O)O].L.[am]}$$$$V2.0) have recorded pIC50 that is 3 or more?
MET

Does the molecule CC(=O)N[C@@H](CC(=O)O)C(=O)N[C@@H](C)C(=O)N[C@@H](CC(=O)O)C(=O)N[C@@H](CCC(=O)O)C(=O)N[C@@H](Cc1ccc(OCC(=O)O)c(C(=O)O)c1)C(=O)N[C@@H](CC(C)C)C(N)=O (HELM PEPTIDE1{[ac].D.A.D.E.[O=C(O)COc1ccc(C[C@H](N[*:1])C(=O)[*:2])cc1C(=O)O].L.[am]}$$$$V2.0) have recorded pIC50 that is 3 or more?
MET

Does the molecule CC(=O)N[C@@H](CC(=O)O)C(=O)N[C@@H](C)C(=O)N[C@@H](CC(=O)O)C(=O)N[C@@H](CCC(=O)O)C(=O)N[C@@H](Cc1ccc(OP(=O)(O)O)cc1)C(=O)N[C@@H](CC(C)C)C(N)=O (HELM PEPTIDE1{[ac].D.A.D.E.[O=C([C@H](Cc1ccc(OP(=O)(O)O)cc1)N[*:1])[*:2]].L.[am]}$$$$V2.0) have recorded pIC50 that is 3 or more?
MET

Does the molecule CC(=O)N[C@@H](CC(=O)O)C(=O)N[C@@H](C)C(=O)N[C@@H](CC(=O)O)C(=O)N[C@@H](CCC(=O)O)C(=O)N[C@@H](Cc1ccc(C(=O)O)cc1)C(=O)N[C@@H](CC(C)C)C(N)=O (HELM PEPTIDE1{[ac].D.A.D.E.[O=C(O)c1ccc(C[C@H](N[*:1])C(=O)[*:2])cc1].L.[am]}$$$$V2.0) have recorded pIC50 that is 3 or more?
NOT MET

Does the molecule CC(=O)N[C@@H](CC(=O)O)C(=O)N[C@@H](C)C(=O)N[C@@H](CC(=O)O)C(=O)N[C@@H](CCC(=O)O)C(=O)N[C@@H](Cc1ccc(CC(=O)O)c(C(=O)O)c1)C(=O)N[C@@H](CC(C)C)C(N)=O (HELM PEPTIDE1{[ac].D.A.D.E.[O=C(O)Cc1ccc(C[C@H](N[*:1])C(=O)[*:2])cc1C(=O)O].L.[am]}$$$$V2.0) have recorded pIC50 that is 3 or more?
NOT MET
